# credit: patent US11358944B2

tested on: CYP2E1; experiment: induction of liver metabolic enzyme, liver microsome probe substrate activity after 7-day administration; format: in vivo, rat; settings: 60 mg/kg intragastric once a day for 7 days, rat liver microsome, solvent group = 1
The reader will find reported Relative enzyme activity CYP2E1 values listed item by item below.
Lab note: record just the number, no unit beside it.

Below, 4 compounds whose answers are already recorded.
>>> print(df.to_string())
                                   compound  value_measured
0  [2H]C1=C(CCCC)[C@@]23C[C@@H](CC[C@]2(C)CC1([2H])[2H])C(C)(C)O3             1.0
1  CCCCC1=CCC[C@@]2(C)CC[C@@H]3C[C@]12OC3(C)C [BAF, 4-butyl-α-agarofuran, reference compound]             1.7
2  [2H]C([2H])([2H])C([2H])([2H])C([2H])([2H])C([2H])([2H])C1=CCC[C@@]2(C)CC[C@@H]3C[C@]12OC3(C)C             1.2
3  [2H]C1([2H])C=C(CCCC)[C@@]23C[C@@H](CC[C@]2(C)C1)C(C)(C)O3 [I-1, d2-BAF]             1.2

Query string: Recorded Relative enzyme activity CYP2E1 of [2H]C1([2H])C=C(C([2H])([2H])C([2H])([2H])C([2H])([2H])C([2H])([2H])[2H])[C@@]23C[C@@H](CC[C@]2(C)C1)C(C)(C)O3 , please.
Result string: 0.9
